# test: yeast display, Sf9 membrane polyspecificity reagent, FACS + sequencing; frameworks hold sequencing errors
reported.endpoint: polyreactivity (PSR sort gate)

{"seq.text": "QVQRVESGGGLVQAGGSLRLSCAASGSTFVNYVMGLYRQAPGKERELVAAISWSGGRTYYADSMKGRFTISRDNAKNTVYLQMNSLKPEDTAVYYCNAVYAGFLRVRYDYWGQGTQVTVSS", "reported.endpoint": "polyreactivity (PSR sort gate)", "test.value": "high polyreactivity"}
{"seq.text": "QVQLVESGGGLVQAGGRLRLSCAASGRTFATNTMGWYIQAPGKEREFVAAISRGGVSTSYADSVKGRFTISRDNAKNTVYLQMNSLKPEDTAVYYCAANHYGFNRNHRHTYVYWGQGTQVTVSS", "reported.endpoint": "polyreactivity (PSR sort gate)", "test.value": "high polyreactivity"}
{"seq.text": "QVQLVESGGGLVQAGGSLRLSCAASGRIFRGYVMGWYIQAPGKERELVAAISINGGRTYYADSVKGRFTISRDNAKNTVYLQMNSLKPEDTAVYYCAAEPIYFRGLYYYWGLGTQVTVSS", "reported.endpoint": "polyreactivity (PSR sort gate)", "test.value": "high polyreactivity"}
{"seq.text": "QVQLVESGGGLVQAGGSLRLSCAASGRIFPTYAMGWYRQAPGKERELVAGITSGGRTNYADSVKGRFTISRDNAKNTVYLQMNSLKQEDTAVYYCDKRVWPRDQYGKRNPRMDYWGQGTQVTVSS", "reported.endpoint": "polyreactivity (PSR sort gate)", "test.value": "high polyreactivity"}
{"seq.text": "QVQLVESGGGLVQAGGSLRLSCAASGFTFTIYAMGWYRPAPGKEMELVAAITGRGGSTYYADSVKGRFTISRDNAKNTVYLRMNSLKPEDTAVYYCADSQRSGHPSYDYWGQGTQVTVSS", "reported.endpoint": "polyreactivity (PSR sort gate)", "test.value": "high polyreactivity"}
{"seq.text": "QVQLVESGRGLVQAGGSLRLSCAASGSIFQKYTMGWYRQAPGKERELVAGINTSGANTYYADSVKGRFTISRDNAKNTVYLQMNSLKPEDTAVYYCAAARPWFAYYYWGQGTQVTVSS", "reported.endpoint": "polyreactivity (PSR sort gate)", "test.value": "high polyreactivity"}
{"seq.text": "QVQLHESGGGLEQAGGSLRLSCAASGYISDIGTMGWYRQAPGKEREFVATIVVGSTTNYADSVKGRFTISRDNAKNSVYLQPESGRYRGVLLRGWLLAVGKFTYWGQGTQETVSS", "reported.endpoint": "polyreactivity (PSR sort gate)", "test.value": "low polyreactivity"}
{"seq.text": "QVQLVESGGGLVQAGGILRLSCAASGITFGGYAMAWYRQAPGKERELVAAISRGGGSTNYADSVKGRFTISRDNAKNTVYLQINSLKPEDTAVYYCNARRQNSRYDYWGQGTQVTVSS", "reported.endpoint": "polyreactivity (PSR sort gate)", "test.value": "low polyreactivity"}
{"seq.text": "QVQLVESGGGLVQAGGSLRLSCAASGYIFGYYVMGWYRQAPGKERELVAAISDSDITYYADSVKGRFTISRDNAKNTVYLQMNSLKPEDTAVYYCNKDHSLYEHNYWGQGTLVTVSS", "reported.endpoint": "polyreactivity (PSR sort gate)", "test.value": "low polyreactivity"}
{"seq.text": "QVQLVESGGGLVQAGGSLRLSCAASGSIFIRYAMGWSRQAPGTEREWVAAITSTGSTSYADSVNGRFTISRDNAKNTVYLQMNRLTPEDTAVYYCAKEASLVQGVIGGYPYDSWGQGTQVTVSS", "reported.endpoint": "polyreactivity (PSR sort gate)", "test.value": "low polyreactivity"}
{"seq.text": "QVELVESGGALVQAGGSLSLSCAASGIIFSIYAMGWDRQAPGKERELVAAITYSGGRTYYADSVKGRFTISRDNAKNTVYLQMNSLKPEDTAVYYCAAVGYGEYYWGQGTQVTVSS", "reported.endpoint": "polyreactivity (PSR sort gate)", "test.value": "high polyreactivity"}
{"seq.text": "QVQLVESGGGLVQAGGSLRLSCAASGRTFYSNAMGWYRQAPGKERELVAAISSSGSSTSYADSVKGRFTMSRDNAKNTVYLQMNSLKPEDTAVYYCAVRTKRRANRDYWGQGTQVTVSS", "reported.endpoint": "polyreactivity (PSR sort gate)", "test.value": "high polyreactivity"}
{"seq.text": "QVQLVESGGGLVQAGGSLRLSCAASVRIFGYNAMGWSRQAPGKERYLVAAITTSGGSTYYADSVKGRFTISRDNAKNTVYLQMNSLKPEDTAVYYCARDSLQVFYPYASDDYWGQGTQVTVSS", "reported.endpoint": "polyreactivity (PSR sort gate)", "test.value": "low polyreactivity"}
{"seq.text": "QVQLVESGGGLVQAGGSLRLSCAASGFTFKRYAMGWYRQARGKERELVAAISWSGSSTYYADSVKGRFTISRDNAKNTVYLQMNSLKPEDTAVYYCAARSFRPAYDYWGQGTQVTVSS", "reported.endpoint": "polyreactivity (PSR sort gate)", "test.value": "high polyreactivity"}
{"seq.text": "QVQLVESGGGLVQAGGSLRLSCAATGSTFDNYAMGWYRQAHGKERELVADITWSGGSTYYADSVKGRFTISRDNAKNTVYLQMNSLKPEDTAVYYCNTAGYYTKYDYWGQGTQVTVSS", "reported.endpoint": "polyreactivity (PSR sort gate)", "test.value": "low polyreactivity"}
{"seq.text": "QVQLVESGGGIVQAGGSHRLICAASGFTYIRYAMGWYRQAPGKERELVASISNRGGRTYYADSVKGRFTNSRDNAKNTVYLQMNSLKPEDTAVYYCAAGYSYYSWGQGTQVTVSS", "reported.endpoint": "polyreactivity (PSR sort gate)", "test.value": "high polyreactivity"}
{"seq.text": "QVQLVESGGGLVQEGGSLRLSCAASGITFTSYTMGWYRQAPGKERELVAAISSGGSTYYADSVKGRFTISRDNAKNTVYLQMNSLKPEDTAVYYCAAISYVFRMYYWGQGTQVTVSS", "reported.endpoint": "polyreactivity (PSR sort gate)", "test.value": "high polyreactivity"}
{"seq.text": "QVQLVESGGGLVQAGGSLRLSCAASGSTFTTYGMGWYRQAPGKERELVAAISLSSGRTYYADSVKGRFTISRDNAKNTVYLQMNSLKPEDTAVYYCNKRSQKPSQYKPYGYWGQGTQVTVSS", "reported.endpoint": "polyreactivity (PSR sort gate)", "test.value": "high polyreactivity"}
{"seq.text": "QVQHVESGGGLVQAGGSLRLSCAASGRIIRGNVMGWYRQAPGKERELVATITSSARTYYADSVKGRFTISRDNAKNTVYLQMNSLKPEDTAVYYCANKQPRYRLRMNYWGQGTQVTVSS", "reported.endpoint": "polyreactivity (PSR sort gate)", "test.value": "high polyreactivity"}
{"seq.text": "QVQLVQSRRGLVQAGCSLRLSCAASGRTFVIYAMGWYRQAPGKERELVAAISKGGGSTYYADSVKGRFTISRDNAKNTVYLQMNSLKPEDTAVYYCAVEASRAGAWYEYWGQGTQVTVSS", "reported.endpoint": "polyreactivity (PSR sort gate)", "test.value": "high polyreactivity"}
{"seq.text": "QVQLQESGGGLMQAGVSQRLSCAASGSISYYSDMGWYRQAPRKEREFVAGIGYGTTTYYADSVKGRFTTSRDNAKNTVYLQMISMKPEDTAVYYCAAYQGNGYEFYYWGQGTQVTVRS", "reported.endpoint": "polyreactivity (PSR sort gate)", "test.value": "low polyreactivity"}
